# Measurement Target: Neuronal acetylcholine receptor; alpha3/beta4 (Homo sapiens, UniProt P30926+P32297)
# Sequence (P30926 whole entry): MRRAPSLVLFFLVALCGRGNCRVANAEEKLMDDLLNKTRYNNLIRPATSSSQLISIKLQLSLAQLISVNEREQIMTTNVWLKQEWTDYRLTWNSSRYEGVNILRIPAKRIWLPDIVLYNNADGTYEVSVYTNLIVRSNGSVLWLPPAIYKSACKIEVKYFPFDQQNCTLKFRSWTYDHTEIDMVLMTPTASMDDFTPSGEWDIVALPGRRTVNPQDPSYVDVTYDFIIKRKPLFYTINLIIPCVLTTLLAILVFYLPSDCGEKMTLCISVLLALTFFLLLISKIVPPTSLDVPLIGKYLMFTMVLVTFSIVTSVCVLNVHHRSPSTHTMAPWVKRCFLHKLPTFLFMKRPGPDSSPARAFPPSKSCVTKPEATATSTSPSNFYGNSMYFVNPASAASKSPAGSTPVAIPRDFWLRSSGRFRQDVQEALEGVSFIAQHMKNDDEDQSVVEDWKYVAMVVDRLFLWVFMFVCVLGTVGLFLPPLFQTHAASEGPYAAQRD
# Sequence (P32297 whole entry): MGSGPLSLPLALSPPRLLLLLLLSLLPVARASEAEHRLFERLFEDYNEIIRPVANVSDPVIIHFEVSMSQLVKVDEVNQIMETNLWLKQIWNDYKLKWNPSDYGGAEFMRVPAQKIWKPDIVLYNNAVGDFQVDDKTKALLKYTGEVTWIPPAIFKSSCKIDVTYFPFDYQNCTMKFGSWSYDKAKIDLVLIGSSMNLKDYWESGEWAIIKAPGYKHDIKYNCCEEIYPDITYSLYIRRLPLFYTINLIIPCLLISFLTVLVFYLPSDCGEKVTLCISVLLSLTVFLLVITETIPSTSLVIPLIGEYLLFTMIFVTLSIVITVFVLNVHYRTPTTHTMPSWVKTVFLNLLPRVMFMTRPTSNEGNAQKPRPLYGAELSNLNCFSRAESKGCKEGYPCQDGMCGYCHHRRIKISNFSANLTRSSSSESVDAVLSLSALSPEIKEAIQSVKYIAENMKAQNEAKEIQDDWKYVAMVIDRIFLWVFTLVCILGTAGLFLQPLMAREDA
# Protocol Text: Displacement of [3H]epibatidine from alpha-3-beta-4 nAChR immobilized on liquid chromatographic stationary phases
# Type: protein-complex assay
What Activity was measured for each of the following?
Respond with the bare value in mL.

input: Name the recorded Activity for `COC(=O)N1CC[C@@H]2CCc3ccnc(Cl)c3[C@@H]21` .
output: -0.32

input: Thanks! And `CN1CCC[C@H]1c1cccnc1` ?
output: 0.16

input: Thanks! And `COC(=O)N1CC[C@@H]2C[C@@H](S(=O)(=O)c3ccccc3)c3cc(Cl)nc(Cl)c3[C@@H]21` ?
output: -0.12

input: Next record, please: `COC(=O)N1CC[C@@H]2C[C@@H](Sc3ccccc3)c3cc(Cl)nc(Cl)c3[C@@H]21`
output: -0.04

input: Item: `COC(=O)N1CC[C@@H]2CCc3ccncc3[C@@H]21`
output: 0.12

input: // repeat for `COC(=O)N1CC[C@@H]2C=Cc3cc(Cl)nc(Cl)c3[C@@H]21` and report
output: 0.28

###

# Measurement Target: Neuronal acetylcholine receptor; alpha4/beta2 (Homo sapiens) (UniProt P17787+P43681)
# Protocol Text: Displacement of [3H]epibatidine from alpha-4-beta-2 nAChR immobilized on liquid chromatographic stationary phases
# Type: protein-complex assay
Where Activity equals or exceeds 0.2 mL, the correct label is criterion met; where it does not, the label is criterion not met.

input: Can `COC(=O)N1CC[C@@H]2C=Cc3cc(Cl)nc(Cl)c3[C@@H]21` be said to have Activity at or above 0.2 mL?
output: criterion met

input: Please do the same for `COC(=O)N1CC[C@@H]2C[C@@H](Sc3ccccc3)c3cc(Cl)nc(Cl)c3[C@@H]21` as well.
output: criterion not met

input: Same for `COC(=O)N1CC[C@@H]2CCc3ccncc3[C@@H]21`
output: criterion met

input: Moving on to the next molecule: `COC(=O)N1CC[C@@H]2C[C@@H](S(=O)(=O)c3ccccc3)c3cc(Cl)nc(Cl)c3[C@@H]21`
output: criterion not met

input: Same again, this time with `COC(=O)N1CC[C@@H]2CCc3ccnc(Cl)c3[C@@H]21`
output: criterion not met

input: One more molecule: `CN1CCC[C@H]1c1cccnc1`
output: criterion met

###

For each entry below, report its Activity value.
# Measurement Target: Neuronal acetylcholine receptor; alpha3/beta4 (Homo sapiens, UniProt P30926+P32297)
# Protocol Text: Agonist activity at alpha-3-beta-4 nAChR in KXalpha-3-beta-4R2 cells by rubidium efflux assay relative to nicotine
# Format: functional, cell-based
# Design: concentration or dose not given beside the values

input: Request body: readout Activity, system Neuronal acetylcholine receptor; alpha3/beta4 (Homo sapiens, UniProt P30926+P32297), query `COC(=O)N1CCC[C@@H]2C=Cc3cc(Cl)nc(Cl)c3[C@@H]21` . Return the value.
output: 75%

input: Also `Clc1cc2c(c(Cl)n1)[C@@H]1NCC[C@@H]1C[C@H]2Sc1ccccc1` , if possible.
output: 35%

input: Another molecule to look at: `c1cc2c(cn1)[C@@H]1NCCC[C@@H]1CC2`
output: 10%

input: What about `COC(=O)N1CC[C@@H]2C[C@@H](Sc3ccccc3)c3cc(Cl)nc(Cl)c3[C@@H]21` ?
output: 10%

input: Can you check `COC(=O)N1CC[C@@H]2CCc3ccnc(Cl)c3[C@@H]21` next?
output: 10%

input: Another molecule to check: `COC(=O)N1CCC[C@@H]2C[C@@H](Sc3ccccc3)c3cc(Cl)nc(Cl)c3[C@@H]21`
output: 100%

input: Another molecule to check: `CN1CCC[C@H]1c1cccnc1`
output: 100%

input: Try this molecule too: `COC(=O)N1CC[C@@H]2C=Cc3cc(Cl)nc(Cl)c3[C@@H]21`
output: 100%

input: Do the same for `COC(=O)N1CC[C@@H]2C[C@@H](S(=O)(=O)c3ccccc3)c3cc(Cl)nc(Cl)c3[C@@H]21` please
output: 10%

###

# Measurement Target: Neuronal acetylcholine receptor; alpha3/beta4 (Homo sapiens, UniProt P30926+P32297)
# Protocol Text: Agonist activity at alpha-3-beta-4 nAChR in KXalpha-3-beta-4R2 cells by rubidium efflux assay
Reported Metric: EC50 (µM)
API: value field is a number in µM; no unit string.

input: If you can, please state the reported EC50 value of `Clc1cc2c(c(Cl)n1)[C@@H]1NCC[C@@H]1C[C@H]2Sc1ccccc1` .
output: 26.4

input: Now the compound `COC(=O)N1CCC[C@@H]2C=Cc3cc(Cl)nc(Cl)c3[C@@H]21`
output: 13.8

input: Entry `COC(=O)N1CCC[C@@H]2C[C@@H](Sc3ccccc3)c3cc(Cl)nc(Cl)c3[C@@H]21` please
output: 18.2

input: What about this compound? `COC(=O)N1CC[C@@H]2C=Cc3cc(Cl)nc(Cl)c3[C@@H]21`
output: 20.8

All figures here come from ChEMBL document CHEMBL1149297.
